The reported numbers originate from patent US12404275B2.

# System: Tyk2
# ASSAY_NAME: Mobility shift assay, inhibitory activity on Tyk2 kinase
# Type: biochemical
# CONDITION_SET: ratio of JAK2 IC50 to TyK2 IC50
Respond with 1 (yes) for Selectivity of JAK2/TyK2 values of 40 and above, 0 (no) for values below.

Query string: Please tell me: is the compound CN(C)c1nn([C@]2(CC#N)C[C@@H](C#N)C2)cc1-c1nc(-c2cnn(C)c2)cn2nccc12 [Example 39] at or over 40 in terms of Selectivity of JAK2/TyK2?
Result string: 1 (yes)

Query string: Please tell me: is the compound CC(C)S(=O)(=O)N1CC(CC#N)(n2cc(-c3nc(-c4cnn(C)c4)cn4nccc34)c(N)n2)C1 [Example 3] at or over 40 in terms of Selectivity of JAK2/TyK2?
Result string: 0 (no)

Query string: Please tell me: is the compound Cn1cc(-c2cn3nccc3c(-c3cn([C@]4(CC#N)C[C@@H](C#N)C4)c4ccncc34)n2)cn1 [Example 48] at or over 40 in terms of Selectivity of JAK2/TyK2?
Result string: 0 (no)

Query string: Please tell me: is the compound Cn1cc(-c2cn3nccc3c(-c3cn([C@]4(CC#N)C[C@H](C#N)C4)c4ncncc34)n2)cn1 [Example 50] at or over 40 in terms of Selectivity of JAK2/TyK2?
Result string: 0 (no)

Query string: Please tell me: is the compound CCS(=O)(=O)N1CC(CC#N)(n2cc(-c3nc(-c4cnn(C)c4)cn4nccc34)c(N)n2)C1 [Example 2] at or over 40 in terms of Selectivity of JAK2/TyK2?
Result string: 1 (yes)

Query string: Please tell me: is the compound CNc1nn([C@]2(CC#N)C[C@@H](C#N)C2)cc1-c1nc(-c2cnn(C)c2)cn2nccc12 [Example 38] at or over 40 in terms of Selectivity of JAK2/TyK2?
Result string: 0 (no)

Query string: Please tell me: is the compound Cn1cc(-c2cn3nccc3c(-c3cn(C4(CC#N)CN(CC#N)C4)nc3N)n2)cn1 [Example 1] at or over 40 in terms of Selectivity of JAK2/TyK2?
Result string: 1 (yes)
